# ASSAYED TARGET: T1, AAV9 (adeno-associated virus 9)
# T1 construct: also called adeno-associated virus serotype 9
# MEASUREMENT NOTES: SPR, AAV amine-coupled to CM5 chip;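 note: nanobodies flowed as analyte at seven concentrations spanning 1–100 nM over immobilized AAV (500–800 RU), kinetic constants derived by fitting the binding curves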
I'd appreciate it if you could supply Kd values for the items below.
The response must be a number in nM with no trailing unit.

Please indicate Kd recorded for A4-069 (VHH) VHH: VQLQESGGGLVQPGGSLRLSCAASGSIFTINSMGWYRQAPGKWRELVATVTRGGNTNYANSVKGRFTISRDNAKNTVYLQMNTLRPEDTAVYYCHLDEVRDSSWTTSNLWGQGTQVTVSS
9.34

Please indicate Kd recorded for A4-074 (VHH) VHH: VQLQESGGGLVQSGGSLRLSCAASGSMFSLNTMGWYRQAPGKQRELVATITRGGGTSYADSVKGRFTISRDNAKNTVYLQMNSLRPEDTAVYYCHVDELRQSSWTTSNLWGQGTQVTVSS
6.03

Please indicate Kd recorded for A4-095 (VHH) VHH: VQLQESGGGLVQPGGSLRLSCAASGSSFSANTMGWYRQAPGKQRELVATITRGGNTNYGDSVKGRFTISRDNAKDTVYLQMNSLRPEDTAVYYCHIDEIRESTWTTSNLWGQGTQVTVSS
6.34
